Source: paper PMC3298469

Target: CXCR3 (Homo sapiens)
Sequence (P49682 whole entry): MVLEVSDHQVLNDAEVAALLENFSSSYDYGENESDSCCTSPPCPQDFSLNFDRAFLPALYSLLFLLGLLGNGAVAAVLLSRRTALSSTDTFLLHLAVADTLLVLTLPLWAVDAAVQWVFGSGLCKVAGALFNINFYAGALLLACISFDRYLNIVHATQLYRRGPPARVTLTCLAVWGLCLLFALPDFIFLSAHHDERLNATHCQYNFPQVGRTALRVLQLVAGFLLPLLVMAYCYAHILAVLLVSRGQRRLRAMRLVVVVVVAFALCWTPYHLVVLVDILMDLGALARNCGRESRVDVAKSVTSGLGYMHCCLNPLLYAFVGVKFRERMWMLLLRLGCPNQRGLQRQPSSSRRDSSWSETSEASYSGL
Assay: [125I]hCXCL11 competition binding (SPA, Ba/F3 membranes)
Parameters: expressed in transfected cells; host or cells: mouse pro-B Ba/F3 cells (vector pME18Sneo), membrane preparation
Conditions: [125I-hI-TAC] 12.5 pM; 3 hr reaction; read-out: IC50
Procedure: The cDNAs encoding human, mouse and rat CXCR3 were generated based on the published sequences: human (NM_001504), mouse (NM_009910), rat (NM_053415). The cDNAs for monkey and dog CXCR3 were cloned in the lab. […] The ability of SCH 546738 to compete the binding of [^125I]hCXCL10 and [^125I]hCXCL11 to human CXCR3 receptor was determined using various concentrations of [^125I]hCXCL10 and [^125I]hCXCL11 as described in Methods. […]
pIC50: −log10 of the molar value.

| compound | pIC50 |
| --- | --- |
| CC[C@H]1CN(c2nc(N)c(C(N)=O)nc2Cl)CCN1C1CCN(Cc2ccc(Cl)cc2)CC1 [SCH 546738] | 8.70 |
